B1: Azoarcus group I ribozyme (parent)
chain: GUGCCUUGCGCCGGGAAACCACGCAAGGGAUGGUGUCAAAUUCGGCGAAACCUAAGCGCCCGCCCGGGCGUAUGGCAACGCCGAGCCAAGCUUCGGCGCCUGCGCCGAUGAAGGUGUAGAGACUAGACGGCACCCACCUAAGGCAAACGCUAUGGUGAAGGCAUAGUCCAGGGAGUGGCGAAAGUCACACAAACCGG

- Variants of: B1
- procedure-details: reverse-splicing fitness (ratio to wild type); higher = more active; in vitro selection; Mg2+ level not given
Measured reverse-splicing fitness values are reported for all entries that follow.
The reply should be a number, written without any unit.

>>> print(df.to_string())
                            mutation_string  quantitative_readout
0        C82G A111C A120U C150U C169A U176A               0.00515
1                         A120C A145C C150A                 0.128
2        C82G A111G A120G A145U C150G C169G               0.00827
3        C82A A111U A120C A145C C150A C169G               0.00947
4              C82A A111C A120C C150G C169G               0.00682
5              C82U A120U C150A C169A U176C                0.0026
6             A111C A145C C150A C169A U176C               0.00898
7  C82G A111G A120C A145U C150G C169G U176G               0.00515
8              C82A A145U C150A C169A U176A                0.0129
9             A111U A120G A145U C150U U176G                0.0059

What the record says about C82A A111C A120G A145G C150A C169G U176C : reverse-splicing fitness is 0.0274

Quick note, reverse-splicing fitness for A111G A120U C150A C169U U176C landed at 0.00598

// reverse-splicing fitness lookup, variant = C82G A120C C150A C169A U176C , result: 0.0213

Lab note: measured reverse-splicing fitness of C82G A111C C169G was 0.00928

Briefly, reverse-splicing fitness measured for C82A A111C A120U A145G C150A U176G : 0.00381

Reported reverse-splicing fitness ( C82G A111U A120G A145U C150A ) = 0.00819

Given item C82U A111G A120U C150A C169U U176A , the value recorded as its reverse-splicing fitness is 0.00577

For reference, reported reverse-splicing fitness for A111G A145G C150A C169U U176C stands at 0.0251

get_value(item= C82G A145C C169G U176A , readout=reverse-splicing fitness) returns 0.0202

Query A111U A120C A145U C150A C169A U176A yields reverse-splicing fitness of 0.0108

Quick note, reverse-splicing fitness for C82G A111G A120G A145G C150G C169A U176A landed at 0.0146

Entry C82A A111G A120C A145U C150A C169A U176A — recorded reverse-splicing fitness = 0.0196
